From: PubChem BioAssay (NCI)

# Test system: KM12 colon
# ASSAY COMMENT: NCI tumour cell line growth inhibition, 384-well format; in the data active = GI50 below about 0.43 µM; inactive = the rest
In this exercise, the only acceptable responses are 1 (yes) for active, 0 (no) for inactive

Task: Dear all, I need the recorded test outcome for O=C(c1ccc(/C=C/c2n[nH]c3ccccc23)cc1)N1CCNCC1 , thank you.
Result: 1 (yes)

Task: Dear all, I need the recorded test outcome for Cc1[nH]c(/C=C2\C(=O)Nc3ccccc32)c(C)c1CCC(=O)O , thank you.
Result: 0 (no)

Task: What outcome does the record of this test show for COCC1(CO)C(=O)C2CCN1CC2 (centres undefined) ?
Result: 0 (no)

Task: Record request — test call for N=C(N)c1ccc2nc(-c3cc(CC(=O)N[C@@H](CC(=O)O)C(=O)O)cc(-c4cc(S(N)(=O)=O)ccc4O)c3O)[nH]c2c1
Result: 0 (no)

====

So I've got a bunch of compounds here, and I need their TGI values.
# Tested on: SN12C renal
# ASSAY COMMENT: NCI tumour cell line growth inhibition, 384-well format
Numeric answer only, unit µM assumed.

Task: So what's the measured TGI for this one? O=C(c1ccc(/C=C/c2n[nH]c3ccccc23)cc1)N1CCNCC1
Result: 10.6

Task: Data request, read-out TGI, for Cc1[nH]c(/C=C2\C(=O)Nc3ccccc32)c(C)c1CCC(=O)O
Result: 89.3

Task: What measured TGI goes with COCC1(CO)C(=O)C2CCN1CC2 (centres undefined) ?
Result: 28.8

====

Could you please report measured TGI for the items listed next?
# Tested on: A549 NSCLC
# ASSAY COMMENT: NCI tumour cell line growth inhibition, 384-well format
Entry rule: numbers only, all in µM.

Task: May I ask what TGI has been recorded for O=C(c1ccc(/C=C/c2n[nH]c3ccccc23)cc1)N1CCNCC1 ?
Result: 19.9

Task: // lookup TGI for Cc1[nH]c(/C=C2\C(=O)Nc3ccccc32)c(C)c1CCC(=O)O
Result: 84.7

Task: Consider the compound COCC1(CO)C(=O)C2CCN1CC2 (centres undefined) and give its measured TGI.
Result: 32.4
